tested on: A549; assay: Anticancer activity against human A549 cells measured after 96 hrs by sulforhodamine B assay; format: functional, cell-based; settings: A549, 96 h
pEC50: −log10 of the molar value.
MEASUREMENT NAME: pEC50

* CC1(C)CC[C@]2(C(=O)O)CC[C@]3(C)C(=CC[C@@H]4[C@@]5(C)C[C@@H](OC(=O)c6cc([N+](=O)[O-])cc([N+](=O)[O-])c6)[C@H](O)C(C)(C)[C@@H]5CC[C@]43C)[C@@H]2C1 | 5.21

1 = CC1(C)CC[C@]2(C(=O)O)CC[C@]3(C)C(=CC[C@@H]4[C@@]5(C)C[C@@H](OC(=O)c6ccccc6)[C@H](O)C(C)(C)[C@@H]5CC[C@]43C)[C@@H]2C1
2 = CC(=O)O[C@@H]1C[C@]2(C)[C@H]3CC=C4[C@@H]5CC(C)(C)CC[C@]5(C(=O)O)CC[C@@]4(C)[C@]3(C)CC[C@H]2C(C)(C)[C@H]1O
Query: So which one has the bigger pEC50 here, 1 or 2 ? The response must carry the label of the picked entry.
Response: 2

###

system: NIH3T3; experiment: Cytotoxicity against mouse NIH/3T3 cells measured after 96 hrs by sulforhodamine B assay; format: cell-based; details: NIH3T3, 96 h
MEASUREMENT NAME: EC50 (µM)
Report the figure in µM without appending any unit label.

# example entries with known answers
• CC1(C)CC[C@]2(C(=O)O)CC[C@]3(C)C(=CC[C@@H]4[C@@]5(C)C[C@@H](OC(=O)c6ccccc6)[C@H](OC(=O)c6ccccc6)C(C)(C)[C@@H]5CC[C@]43C)[C@@H]2C1 = 23.2
• CC1(C)CC[C@]2(C(=O)O)CC[C@]3(C)C(=CC[C@@H]4[C@@]5(C)C[C@@H](O)[C@H](OC(=O)c6ccccc6Cl)C(C)(C)[C@@H]5CC[C@]43C)[C@@H]2C1 = 7.1
• CC1(C)CC[C@]2(C(=O)O)CC[C@]3(C)C(=CC[C@@H]4[C@@]5(C)C[C@@H](O)[C@H](O)C(C)(C)[C@@H]5CC[C@]43C)[C@@H]2C1 [MASLINIC ACID] = 16.6

Attention now turns to another entry.
Query: Consider the compound "CC1(C)CC[C@]2(C(=O)O)CC[C@]3(C)C(=CC[C@@H]4[C@@]5(C)C[C@@H](O)[C@H](OC(=O)c6cc([N+](=O)[O-])cc([N+](=O)[O-])c6)C(C)(C)[C@@H]5CC[C@]43C)[C@@H]2C1" and give its measured EC50.
Response: 15.7

###

system: MCF7; assay: Anticancer activity against human MCF7 cells measured after 96 hrs by sulforhodamine B assay; format: functional, cell-based; settings: MCF7, 96 h
MEASUREMENT NAME: EC50 (µM)

• CC1(C)CC[C@]2(C(=O)O)CC[C@]3(C)C(=CC[C@@H]4[C@@]5(C)C[C@@H](O)[C@H](OC(=O)c6ccccc6Cl)C(C)(C)[C@@H]5CC[C@]43C)[C@@H]2C1 = 3.3

1 = CC1(C)CC[C@]2(C(=O)O)CC[C@]3(C)C(=CC[C@@H]4[C@@]5(C)C[C@@H](OC(=O)c6ccccc6F)[C@H](O)C(C)(C)[C@@H]5CC[C@]43C)[C@@H]2C1
2 = CC(=O)O[C@@H]1C[C@]2(C)[C@H]3CC=C4[C@@H]5CC(C)(C)CC[C@]5(C(=O)O)CC[C@@]4(C)[C@]3(C)CC[C@H]2C(C)(C)[C@H]1O
Query: Hi there, can you help? I need to know whether 1 or 2 has lower measured EC50. The response must carry the label of the picked entry.
Response: 1

###

tested on: NIH3T3; assay: Cytotoxicity against mouse NIH/3T3 cells measured after 96 hrs by sulforhodamine B assay; assay type: cell-based; conditions: NIH3T3, 96 h
EC50 values by entry
Report the figure in µM without appending any unit label.

# example entries with known answers
• CC1(C)CC[C@]2(C(=O)O)CC[C@]3(C)C(=CC[C@@H]4[C@@]5(C)C[C@@H](OC(=O)c6ccccc6)[C@H](O)C(C)(C)[C@@H]5CC[C@]43C)[C@@H]2C1 = 15
• CC1(C)CC[C@]2(C(=O)O)CC[C@]3(C)C(=CC[C@@H]4[C@@]5(C)C[C@@H](OC(=O)c6ccccc6Cl)[C@H](O)C(C)(C)[C@@H]5CC[C@]43C)[C@@H]2C1 = 10.4
• CC1(C)CC[C@]2(C(=O)O)CC[C@]3(C)C(=CC[C@@H]4[C@@]5(C)C[C@@H](OC(=O)c6cc([N+](=O)[O-])cc([N+](=O)[O-])c6)[C@H](O)C(C)(C)[C@@H]5CC[C@]43C)[C@@H]2C1 = 17.4

Query: State its EC50 on NIH3T3: "CC1(C)CC[C@]2(C(=O)O)CC[C@]3(C)C(=CC[C@@H]4[C@@]5(C)C[C@@H](O)[C@H](OC(=O)c6ccccc6F)C(C)(C)[C@@H]5CC[C@]43C)[C@@H]2C1"
Response: 12.5

Query: State its EC50 on NIH3T3: "CC(=O)O[C@@H]1C[C@]2(C)[C@H]3CC=C4[C@@H]5CC(C)(C)CC[C@]5(C(=O)O)CC[C@@]4(C)[C@]3(C)CC[C@H]2C(C)(C)[C@H]1OC(C)=O"
Response: 10.4

Query: State its EC50 on NIH3T3: "CC(=O)O[C@@H]1C[C@]2(C)[C@H]3CC=C4[C@@H]5CC(C)(C)CC[C@]5(C(=O)O)CC[C@@]4(C)[C@]3(C)CC[C@H]2C(C)(C)[C@H]1O"
Response: 15.4

Query: State its EC50 on NIH3T3: "CC1(C)CC[C@]2(C(=O)O)CC[C@]3(C)C(=CC[C@@H]4[C@@]5(C)C[C@@H](OC(=O)c6ccccc6F)[C@H](O)C(C)(C)[C@@H]5CC[C@]43C)[C@@H]2C1"
Response: 16.9

###

system: A549; experiment: Anticancer activity against human A549 cells measured after 96 hrs by sulforhodamine B assay; format: functional, cell-based; conditions: A549, 96 h
pEC50: −log10 of the molar value.
MEASUREMENT NAME: pEC50

• CC1(C)CC[C@]2(C(=O)O)CC[C@]3(C)C(=CC[C@@H]4[C@@]5(C)C[C@@H](O)[C@H](OC(=O)c6ccccc6F)C(C)(C)[C@@H]5CC[C@]43C)[C@@H]2C1 = 5.01

1 = CC1(C)CC[C@]2(C(=O)O)CC[C@]3(C)C(=CC[C@@H]4[C@@]5(C)C[C@@H](OC(=O)c6ccccc6F)[C@H](O)C(C)(C)[C@@H]5CC[C@]43C)[C@@H]2C1
2 = CC1(C)CC[C@]2(C(=O)O)CC[C@]3(C)C(=CC[C@@H]4[C@@]5(C)C[C@@H](O)[C@H](OC(=O)c6ccccc6Cl)C(C)(C)[C@@H]5CC[C@]43C)[C@@H]2C1
Query: So which one has the bigger pEC50 here, 1 or 2 ? The response must carry the label of the picked entry.
Response: 2
(2: 5.24, 1: 5.03)

###

tested on: 518A2; assay: Anticancer activity against human 518A2 cells measured after 96 hrs by sulforhodamine B assay; format: functional, cell-based; conditions: 518A2, 96 h
MEASUREMENT NAME: EC50 (µM)

# example entries with known answers
• CC1(C)CC[C@]2(C(=O)O)CC[C@]3(C)C(=CC[C@@H]4[C@@]5(C)C[C@@H](O)[C@H](OC(=O)c6ccccc6Cl)C(C)(C)[C@@H]5CC[C@]43C)[C@@H]2C1 = 6.8
• CC1(C)CC[C@]2(C(=O)O)CC[C@]3(C)C(=CC[C@@H]4[C@@]5(C)C[C@@H](OC(=O)c6ccccc6F)[C@H](O)C(C)(C)[C@@H]5CC[C@]43C)[C@@H]2C1 = 11.6
• CC1(C)CC[C@]2(C(=O)O)CC[C@]3(C)C(=CC[C@@H]4[C@@]5(C)C[C@@H](OC(=O)c6ccccc6)[C@H](O)C(C)(C)[C@@H]5CC[C@]43C)[C@@H]2C1 = 15.5
• CC1(C)CC[C@]2(C(=O)O)CC[C@]3(C)C(=CC[C@@H]4[C@@]5(C)C[C@@H](O)[C@H](OC(=O)c6ccccc6F)C(C)(C)[C@@H]5CC[C@]43C)[C@@H]2C1 = 11.8

A = CC1(C)CC[C@]2(C(=O)O)CC[C@]3(C)C(=CC[C@@H]4[C@@]5(C)C[C@@H](OC(=O)c6cccnc6Cl)[C@H](OC(=O)c6cccnc6Cl)C(C)(C)[C@@H]5CC[C@]43C)[C@@H]2C1
B = CC1(C)CC[C@]2(C(=O)O)CC[C@]3(C)C(=CC[C@@H]4[C@@]5(C)C[C@@H](OC(=O)c6ccccc6Cl)[C@H](O)C(C)(C)[C@@H]5CC[C@]43C)[C@@H]2C1
Query: So which one has the bigger EC50 here, A or B ? The response must carry the label of the picked entry.
Response: A
(A: 17.1 µM, B: 8.3 µM)

P = CC1(C)CC[C@]2(C(=O)O)CC[C@]3(C)C(=CC[C@@H]4[C@@]5(C)C[C@@H](OC(=O)c6cc([N+](=O)[O-])cc([N+](=O)[O-])c6)[C@H](O)C(C)(C)[C@@H]5CC[C@]43C)[C@@H]2C1
Q = CC(=O)O[C@@H]1C[C@]2(C)[C@H]3CC=C4[C@@H]5CC(C)(C)CC[C@]5(C(=O)O)CC[C@@]4(C)[C@]3(C)CC[C@H]2C(C)(C)[C@H]1O
Query: Hi there, can you help? I need to know whether P or Q has lower measured EC50. The response must carry the label of the picked entry.
Response: P
(P: 12.1 µM, Q: 21 µM)
